system: Felis catus; assay: In vivo inhibition of beta-2 adrenergic receptor in cat assessed as inhibition of isoproterenol-induced vasodepressor response at ED50 administered as 30 mins of infusion measured at 30 mins relative to control; assay type: functional
Recorded inhibition (INH), one value per entry.
measurement-type: inhibition (INH) (%)

>  <compound>
CC(=O)Nc1ccc(OCC(O)CNC(C)C)cc1 (configuration not stated)

>  <experimental-target>
Felis catus

>  <measurement-type>
inhibition (INH)

>  <units-label>
%

>  <measured-value>
8

$$$$
>  <compound>
C=CCNC(=O)Nc1ccc(OCC(O)CNC(C)C)cc1 (configuration not stated)

>  <experimental-target>
Felis catus

>  <measurement-type>
inhibition (INH)

>  <units-label>
%

>  <measured-value>
70

$$$$
>  <compound>
CC(C)(C)NCC(O)COc1ccc(NC(=O)Nc2ccc(Cl)cc2)cc1 (configuration not stated)

>  <experimental-target>
Felis catus

>  <measurement-type>
inhibition (INH)

>  <units-label>
%

>  <measured-value>
39

$$$$
>  <compound>
CC(C)NCC(O)COc1ccc(NC(N)=O)cc1 (configuration not stated)

>  <experimental-target>
Felis catus

>  <measurement-type>
inhibition (INH)

>  <units-label>
%

>  <measured-value>
20

$$$$
>  <compound>
C=CCNC(=O)Nc1ccc(OCC(O)CNC(C)(C)C)cc1 (configuration not stated)

>  <experimental-target>
Felis catus

>  <measurement-type>
inhibition (INH)

>  <units-label>
%

>  <measured-value>
6

$$$$
>  <compound>
CNC(=O)Nc1ccc(OCC(O)CNC(C)C)cc1 (configuration not stated)

>  <experimental-target>
Felis catus

>  <measurement-type>
inhibition (INH)

>  <units-label>
%

>  <measured-value>
29

$$$$
>  <compound>
CCCCNC(=O)Nc1ccc(OCC(O)CNC(C)(C)C)c(Cl)c1 (configuration not stated)

>  <experimental-target>
Felis catus

>  <measurement-type>
inhibition (INH)

>  <units-label>
%

>  <measured-value>
0

$$$$
